System: KMOE-2 (Acute Myeloid Leukemia)
Assay: Bliss excess, mean over the matrix (fraction); higher = more synergy
MEASURED_PARAMETER: Bliss excess
# output: bare number, no unit

Use these answered entries as a reference point.
COc1cccc2c1C(=O)c1c(O)c3c(c(O)c1C2=O)C[C@@](O)(C(=O)CO)C[C@@H]3O[C@H]1C[C@H](N)[C@H](O)[C@H](C)O1 [Doxorubicin] + Cc1cc2ncnn2cc1Nc1ncc2c(n1)n(C1CCOCC1)c(=O)n2C [AZD7648] (first compound max 1 µM, 7x7, partner max 10 µM)
0.0867
CN(CCO)CC[C@H](CSc1ccccc1)Nc1ccc(S(=O)(=O)NC(=O)c2ccc(N3CCC([C@@H](O)c4ccccc4-c4ccc(Cl)cc4)CC3)cc2)cc1S(=O)(=O)C(F)(F)F [AZD4320] + Cn1cnc2c(F)c(Nc3ccc(Br)cc3Cl)c(C(=O)NOCCO)cc21 [Selumetinib] (first compound max 1 µM, 7x7, partner max 3 µM)
0.0415
CC1(C)CCC(CN2CCN(c3ccc(C(=O)NS(=O)(=O)c4ccc(NCC5CCOCC5)c([N+](=O)[O-])c4)c(Oc4cnc5[nH]ccc5c4)c3)CC2)=C(c2ccc(Cl)cc2)C1 [Venetoclax] + C1CN(CCC1(C(=O)N[C@@H](CCO)C2=CC=C(C=C2)Cl)N)C3=NC=NC4=C3C=CN4 [Capivasertib] (first compound max 1 µM, 7x7, partner max 3 µM)
0.0121
COc1nnc2ccc(N3CCC(c4ccc(OCCN5CCN(C)C(=O)[C@H]5C)cc4)CC3)nn12 [AZD5153] + CN(CC[C@H](CSC1=CC=CC=C1)NC2=C(C=C(C=C2)S(=O)(=O)NC(=O)C3=CC=C(C=C3)N4CCC(CC4)[C@H](C5=CC=CC=C5C6=CC=C(C=C6)Cl)O)S(=O)(=O)C(F)(F)F)CCO [AZD4320] (first compound max 1 µM, 7x7, partner max 1 µM)
0.0295
Cc1c2c(nn1C)CSCc1cc(n(C)n1)CSc1cc(c3ccccc3c1)OCCCc1c(C(=O)O)n(C)c3c-2c(Cl)ccc13 [AZD5991] + Cn1cnc2c(F)c(Nc3ccc(Br)cc3Cl)c(C(=O)NOCCO)cc21 [Selumetinib] (first compound max 1 µM, 7x7, partner max 3 µM)
-0.0227
COc1nnc2ccc(N3CCC(c4ccc(OCCN5CCN(C)C(=O)[C@H]5C)cc4)CC3)nn12 [AZD5153] + C=CCn1c(=O)c2cnc(Nc3ccc(N4CCN(C)CC4)cc3)nc2n1-c1cccc(C(C)(C)O)n1 [AZD1775] (first compound max 1 µM, partner max 1 µM)
0.0656
Cc1c2c(nn1C)CSCc1cc(n(C)n1)CSc1cc(c3ccccc3c1)OCCCc1c(C(=O)O)n(C)c3c-2c(Cl)ccc13 [AZD5991] + C=CCn1c(=O)c2cnc(Nc3ccc(N4CCN(C)CC4)cc3)nc2n1-c1cccc(C(C)(C)O)n1 [AZD1775] (first compound max 1 µM, partner max 1 µM)
0.0087
CC1(C)CCC(CN2CCN(c3ccc(C(=O)NS(=O)(=O)c4ccc(NCC5CCOCC5)c([N+](=O)[O-])c4)c(Oc4cnc5[nH]ccc5c4)c3)CC2)=C(c2ccc(Cl)cc2)C1 [Venetoclax] + Cn1cnc2c(F)c(Nc3ccc(Br)cc3Cl)c(C(=O)NOCCO)cc21 [Selumetinib] (first compound max 1 µM, 7x7, partner max 3 µM)
-0.0168

Input line: Bliss excess lookup needed for Cc1cc2ncnn2cc1Nc1ncc2c(n1)n(C1CCOCC1)c(=O)n2C [AZD7648] + CN(C)CCCOc1ccc(-c2ccc3ncc4c(c3c2)n(C2CCOCC2)c(=O)n4C)cn1 [AZD0156] (first compound max 10 µM, 7x7, partner max 1 µM) , thanks.
Output line: 0.0226

Input line: Bliss excess lookup needed for COc1cc2c(cc1OCCCCCOc1cc3c(cc1OC)C(=O)N1C=C(C)C[C@H]1C=N3)N=C[C@@H]1CC(C)=CN1C2=O [SG3199] + O=C(c1cc(Cc2n[nH]c(=O)c3ccccc23)ccc1F)N1CCN(C(=O)C2CC2)CC1 [Olaparib] (first compound max 0.001 µM, 7x7, partner max 10 µM) , thanks.
Output line: -0.0283

* * *

System: PANC-04-03 (Pancreatic Carcinoma)
Assay: combination Emax (second highest fraction inhibited in the dose matrix, 72 h); higher = more inhibition; extreme values may be limits of the assay
MEASURED_PARAMETER: combination Emax

CCN(CCO)CCCOc1ccc2c(Nc3cc(CC(=O)Nc4cccc(F)c4)[nH]n3)ncnc2c1 [AZD2811] + O=C(c1cc(Cc2n[nH]c(=O)c3ccccc23)ccc1F)N1CCN(C(=O)C2CC2)CC1 [Olaparib] (first compound max 1 µM, 7x7, partner max 10 µM)
0.227

Input line: combination Emax lookup needed for COc1cccc(OCCCN)c1-c1cc(Nc2cnc(C#N)cn2)n[nH]1 [Prexasertib] + C=CCn1c(=O)c2cnc(Nc3ccc(N4CCN(C)CC4)cc3)nc2n1-c1cccc(C(C)(C)O)n1 [AZD1775] (first compound max 1 µM, partner max 1 µM) , thanks.
Output line: 0.627

* * *

Test system: NCI-H727 (Other Solid Carcinomas)
Assay: combination Emax (second highest fraction inhibited in the dose matrix, 72 h); higher = more inhibition; extreme values may be limits of the assay
combination Emax: recorded values
# output: bare number, no unit

Use these answered entries as a reference point.
C=CCn1c(=O)c2cnc(Nc3ccc(N4CCN(C)CC4)cc3)nc2n1-c1cccc(C(C)(C)O)n1 [AZD1775] + Nc1ccn([C@@H]2O[C@H](CO)[C@@H](O)C2(F)F)c(=O)n1 [Gemcitabine] (first compound max 1 µM, partner max 0.3 µM)
0.392
CN(CCO)CC[C@H](CSc1ccccc1)Nc1ccc(S(=O)(=O)NC(=O)c2ccc(N3CCC([C@@H](O)c4ccccc4-c4ccc(Cl)cc4)CC3)cc2)cc1S(=O)(=O)C(F)(F)F [AZD4320] + CC(=O)O[C@H]1C(=O)[C@@]2(C)[C@H]([C@H](OC(=O)c3ccccc3)[C@]3(O)C[C@H](OC(=O)[C@H](O)[C@@H](NC(=O)c4ccccc4)c4ccccc4)C(C)=C1C3(C)C)[C@]1(OC(C)=O)CO[C@@H]1C[C@@H]2O [Paclitaxel] (first compound max 1 µM, 7x7, partner max 3 µM)
0.82

Next, consider the following molecule.
Input line: combination Emax lookup needed for Cc1c2c(nn1C)CSCc1cc(n(C)n1)CSc1cc(c3ccccc3c1)OCCCc1c(C(=O)O)n(C)c3c-2c(Cl)ccc13 [AZD5991] + Cn1cnc2c(F)c(Nc3ccc(Br)cc3Cl)c(C(=O)NOCCO)cc21 [Selumetinib] (first compound max 1 µM, 7x7, partner max 3 µM) , thanks.
Output line: 0.65

* * *

Tested on: OVCAR-4 (Ovarian Carcinoma)
Assay: combination Emax (second highest fraction inhibited in the dose matrix, 72 h); higher = more inhibition; extreme values may be limits of the assay
combination Emax: recorded values
# output: bare number, no unit

NC1(C(=O)N[C@@H](CCO)c2ccc(Cl)cc2)CCN(c2ncnc3[nH]ccc23)CC1 [Capivasertib] + CC(=O)c1c(C)c2cnc(Nc3ccc(N4CCNCC4)cn3)nc2n(C2CCCC2)c1=O [Palbociclib] (first compound max 10 µM, 7x7, partner max 10 µM)
0.168

Next, consider the following molecule.
Input line: combination Emax lookup needed for CC(=O)c1c(C)c2cnc(Nc3ccc(N4CCNCC4)cn3)nc2n(C2CCCC2)c1=O [Palbociclib] + Cc1c2c(nn1C)CSCc1cc(n(C)n1)CSc1cc(c3ccccc3c1)OCCCc1c(C(=O)O)n(C)c3c-2c(Cl)ccc13 [AZD5991] (first compound max 10 µM, 7x7, partner max 1 µM) , thanks.
Output line: 0.191

* * *

Tested on: HGC-27 (Gastric Carcinoma)
Assay: Bliss excess, mean over the matrix (fraction); higher = more synergy
MEASURED_PARAMETER: Bliss excess
# output: bare number, no unit

CCc1c2c(nc3ccc(O)cc13)-c1cc3c(c(=O)n1C2)COC(=O)[C@]3(O)CC [SN-38] + O=C(c1cc(Cc2n[nH]c(=O)c3ccccc23)ccc1F)N1CCN(C(=O)C2CC2)CC1 [Olaparib] (first compound max 0.3 µM, 7x7, partner max 10 µM)
-0.0468

Next, consider the following molecule.
Input line: Bliss excess lookup needed for Cc1cc2ncnn2cc1Nc1ncc2c(n1)n(C1CCOCC1)c(=O)n2C [AZD7648] + C=CCn1c(=O)c2cnc(Nc3ccc(N4CCN(C)CC4)cc3)nc2n1-c1cccc(C(C)(C)O)n1 [AZD1775] (first compound max 10 µM, partner max 1 µM) , thanks.
Output line: -0.012

* * *

Test system: NEC8 (Other Solid Carcinomas)
Experiment: combination Emax (second highest fraction inhibited in the dose matrix, 72 h); higher = more inhibition; extreme values may be limits of the assay
MEASURED_PARAMETER: combination Emax
# output: bare number, no unit

Input line: combination Emax lookup needed for CCN(CCO)CCCOc1ccc2c(Nc3cc(CC(=O)Nc4cccc(F)c4)[nH]n3)ncnc2c1 [AZD2811] + C[C@@H]1COCCN1C2=NC(=NC(=C2)C3(CC3)[S@](=N)(=O)C)C4=C5C=CNC5=NC=C4 [AZD6738] (first compound max 1 µM, 7x7, partner max 10 µM) , thanks.
Output line: 0.649
